Target: pooled human IgG (human IgG1, 2, 3 and 4)
assay.metric: Enzyme Activity Endpoint Assay (purified): Fab′2 (ng/µL)
Only the number, expressed in ng/µL, is required.

- protein: "PRT-637 (protein) MQITSVWTKGVTPLTPEQFRYNNEDVIHAPYLAHQGWYDITKAFDGGDGLLCGAATAGNMLHWWFDQNKTEIEAYLSKHPEKQKIIFNNQELFDLKAAIDTKDSQTNSQLFNYFRDKAFPNLSARQKGVMPDLVLDMFINGYYLNVFKTQSTDVNRPYQDKDKRGGIFDAVFTRGDQTTLLTARHDLKNKGLNDISTIIKQELTEGRALALSHTYANVSISHVINLWGADFNAEGNLEAIYVTDSDAGNGIGMKKYFVGINAHGHVAISAKKIEGENIGAQVLGLFTLSSGKDIWQKLSLEHHHHHH"
  measured.number: 278

Below: the item to evaluate.
Q. For the protein PRT-414 (protein) MTITSVWTKGVTPPTPEDFRYNNEDVLHAPYVANQGWYDITKTFDGKDNLLCGAATAGNMLHWWFDQNKEEIERYLKKHPEKQKIIFGNQELFDVKAAIDTKDSQTNSKLFNYFRDKAFPNLSARQLGVMPDLVLDMFINGYYLNLGKTQSTDVNRPYQDKDKRGGIFDAVFTRGDQTTLLTARHDLKNKGLNEISDLIKQELTEGKALALSHTYANVRINHVINLWGADFDAEGNLIAIYVTDSDANASIGMKKYFVGVNANGKVAISAKKIEGDNIGAQVLGLFTLSTGQDIWQKLS , report Enzyme Activity Endpoint Assay (purified): Fab′2.
A. 496
